Short version: intrinsic clearance, rat liver microsomes at least 300 mL/min/kg is MET, less is NOT MET.

compound	class_label
COc1cccc(NC(=O)C2CNC2)c1	NOT MET
COCCNc1cc(NC(=O)N2CCCc3cc(CN4CCN(C)CC4=O)c(C=O)nc32)ncc1C#N	NOT MET
CCCc1nc(N2CCc3ccccc3C2)ncc1C(=O)O	NOT MET
O=C(NCCc1ccc(F)cc1)n1ccnc1	NOT MET
COc1ccc(Cc2noc(-c3cccc4c3OCC(=O)N4)n2)cc1	NOT MET
COC(=O)C1=NOC2(CCN(CCCCCF)CC2)C1	MET
Cc1nccc(-c2cccc(-n3ccnc3C(C)C)c2)n1	MET
CCNC(=O)N1CCC(c2nc(-c3ccccc3)no2)CC1	NOT MET
Cc1ccc(S(=O)(=O)N2CCOc3ccncc32)cc1	MET
Cc1nnsc1CN(C)c1ccc2cc[nH]c2n1	MET
O=C(COCc1nc2ccccc2s1)N1CCC(n2c(=O)[nH]c3ccccc32)CC1	MET
Cc1noc([C@@H]2C[C@H](NC(=O)c3ccc(F)cc3)CN2C)n1	NOT MET
Cc1cn2cc(C(=O)N(C)CCO)cc(N[C@@H]3CCOc4cccc(C)c43)c2n1	NOT MET
N#CCc1ccc(OCc2ccncc2)cc1	MET
Cc1cccc(C)c1OCC(=O)N(C)[C@@H]1CC[C@@H](N2CCOCC2)[C@@H]1O	NOT MET
Cc1cc(C)cc(C(=O)Nc2c(C#N)cnn2C)c1	NOT MET
Cc1ccc(C(=O)Nc2ncccc2C)s1	NOT MET
Cc1cccc(NCCc2cn3c(n2)CCCC3)n1	MET
Cc1nc(C)n(-c2ccccc2NC(=O)c2cc(C#N)cn2C)n1	NOT MET
Cc1nc(NCc2ccc(F)c(Cl)c2)n(C)n1	NOT MET
Cc1nn(C)c(C)c1NC(=O)CN1CCN(c2nccs2)CC1	NOT MET
O=C(CCc1ccc(Cl)cc1)N1CCCC(c2n[nH]cc2-c2cccc(F)c2)C1 (centres undefined)	MET
CC1(C)CN(C(=O)c2cncc(Br)c2)CCO1	NOT MET

###

# strict inequality: intrinsic clearance, human liver microsomes < 30 mL/min/kg yields class 1, everything else yields class 0

structure_string	class_label
O=c1[nH]c2ccccc2n1C1CCN(c2ncnc3sccc23)CC1	class 0
O=C([C@H]1CCCN(Cc2ccc(Cl)cc2)C1)N1CCc2ccccc2C1	class 0
CN(Cc1ccc2c(c1)OCO2)Cc1ccccc1C#N	class 0
N#Cc1cccc(CN2CCOC[C@H](O)C2)c1	class 1
COc1cc(C#N)ccc1Cn1ccnc1C(C)C	class 1
O=C(c1ccc(-c2ccncc2)cc1)N1CCC(F)(F)CC1	class 1
CCCc1cc(N2CCc3c(nc(C(C)C)n3C)C2)n2ncnc2n1	class 1
CC(C)(C)Sc1c(CC(C)(C)C(=O)O)n(Cc2ccc(Cl)cc2)c2ccc(OCc3ccc4ccccc4n3)cc12	class 1
O=C(N[C@@H](COc1ccc2[nH]c(=O)[nH]c2c1)c1ccccc1)c1cccn(Cc2ccc(F)c(F)c2)c1=O	class 0
Cc1cccnc1CN1CCC(O)(c2ccccc2)CC1	class 1
COC1CCN(C(=O)Nc2cc(C(F)(F)F)cc(C(F)(F)F)c2)CC1	class 0

###

measurement_kind: intrinsic clearance, human liver microsomes (mL/min/kg)

compound	value_relation_sign	meas_value
NC(=O)C1CCN(C(=O)CCc2ccc(Cl)cc2)CC1	≤	4.74
O=C(NCCc1cnn[nH]1)C1Cc2ccccc2C1	≤	4.74
N#CCCCN1CCC(c2c[nH]c3ccccc23)CC1	=	23.8
O=C(COCC1CC1)N1CCCc2ncccc21	=	13.8
CCOc1ccc(-c2csc(N)n2)cc1	=	102
COc1ccc(=O)n(Cc2noc3c2CCCC3)n1	=	11.4
C[C@H]1NC(=O)N(CCc2nc(C(F)(F)F)cs2)C1=O	=	5.83
CC(C)(C)CCCNC(=O)N1CCN(Cc2ccon2)CC1	=	17.1
CCc1ccccc1-c1cn(CCc2cnccn2)nn1	=	24.7
Cc1noc2ncnc(N3CCCN(C(=O)C4CC4)CC3)c12	=	6.43
CCOC(=O)Nc1cc(-c2ccc(C)c(NS(C)(=O)=O)c2)nn2c(C)nnc12	=	7.01
O=C(Cc1ccc2c(c1)CCC2)Nc1nc2ccccc2o1	=	113
Cc1ccnc(N2CC(O)(c3ccc(F)cc3)C2)c1C#N	=	99.1
CCN(CC)Cc1ccc2cc(COC(=O)Nc3ccc(C(=O)NO)cc3)ccc2c1	=	7.96
O=c1[nH]c2ccccc2n1C1CCN(Cc2nc(-c3cccs3)no2)CC1	=	11.4
CC(C)[C@H]1C(=O)N[C@H](CO)Cc2cc(NC(=O)/C=C/C=C/c3ccc(C(F)(F)F)cc3)ccc2N1C	=	497
Nc1ccc2[nH]c(CCc3ccccc3)nc2c1	≤	4.74
CCc1nc2ccccc2n1CC(=O)Nc1cnc2ccccc2c1	=	21.3
CC(=O)N1CCN(c2c(Cl)cccc2NC(=O)COc2ccccc2Cl)CC1	=	430
COc1cc(-c2cn(C3CCc4c(F)cccc4N(CC(F)(F)F)C3=O)nn2)ccc1-n1cnc(C)c1 (centres undefined)	=	26.1
COc1cc2c(cc1OC)CN(C(=O)C1CCCN(C(C)=O)C1)CC2 (centres undefined)	≤	4.74
O=C(Cn1nc2n(c1=O)-c1ccccc1C1=NCCN12)N1CCCc2ccccc21	=	256
O=C(O)c1cc(Cl)cc2cccnc12	≤	4.74
O=C(CSc1ncn[nH]1)N(C1CCCCC1)C1CCCCC1	=	120

###

Recorded measurements of MDR1-MDCK efflux ratio, one per entry

structure_string	MDR1-MDCK efflux ratio
O=C(Cc1ccc2ccccc2c1)NCCc1nc2ccccc2[nH]1	15.4
CC1(CNC(=O)N2CCN(Cc3ccon3)CC2)CCCC1	2.07
Cc1ccc(-c2nc(NCc3ccco3)ncc2-c2cc(C)no2)cn1	0.989
COc1ccc(NC(=O)CN2CCC(c3cc(-c4cnc(N)nc4)cc(C)n3)CC2)cc1	5.08
COc1ccc(OC)c(-c2cc(C(=O)N3CCCN(C(C)=O)CC3)no2)c1	4.72
Cc1n[nH]c(C)c1Cc1ccc(NCCC(C)C)cc1	0.61
O=C(CC1c2ccccc2CCc2ccccc21)NCCN1CCOCC1	10.6
O=C1NCC2(C/C=C/CCOc3ccccc31)CCN(C(=O)c1ccc3[nH]nnc3c1)CC2	45.8
CN(CCc1ccccc1)C(=O)CC#N	0.666
CS(=O)(=O)CCc1nc(C2(c3ccccc3)CC2)nn1-c1ccccc1	5.9
Cc1nn(C)c2ncc(C(=O)Nc3ccc4c(c3)CCO4)cc12	0.571

###

Each record here notes measured MDR1-MDCK efflux ratio.
measurement_kind: MDR1-MDCK efflux ratio

compound	meas_value
CNC(=O)CN1CCCN(C(=O)c2c(C)nn(-c3ccccc3)c2Cl)CC1	82.1
Cc1cccc(-n2c(S)nnc2CNc2ccc(F)cc2)c1	2.44
CC(C)n1nnnc1-c1ccc(N)cc1F	0.63
CCn1c(=O)oc2cc(NC(=O)c3ccc(C(C)(C)C)cc3)ccc21	0.34
Cc1cc(F)ccc1NC(=O)c1cccc2cccnc12	0.117
CC(=O)NC1(C(=O)N2CCCN(C3CC3)CC2)CCC(C)CC1 (centres undefined)	37.7
COc1ccc(CNC(=O)c2sc3nc(C)cc(C)c3c2N)cc1	0.386
COc1cc2c(cc1OC)-c1cc3ccc(OC)c(OC)c3c[n+]1CC2	22.5
COc1ccc(C)cc1-c1cccnc1O	1.08
CN(C)c1cc(CNc2ccc(C#N)cn2)ccn1	0.695
Cn1cnnc1-c1cccc(NS(=O)(=O)c2ccc3c(c2)OCCCO3)c1	79.6
O=c1c(-n2ccnn2)c[nH]n1-c1cc(N2CCOCC2)ncn1	1.76
C#CCNC(=O)Cc1coc2cc(OC)ccc12	0.646
CCC(=O)NCc1ccnc(N(C)C)c1	0.879
Cc1cnc(Cl)nc1-c1ccc(N(Cc2ccc(CNC(=O)C(F)F)cc2)C(=O)c2ccc(O)cc2O)cc1	54.7
Cc1cc(Cl)n(-c2ccc(C#N)cc2)n1	0.465
O=C(NCc1cccc(F)c1)c1[nH]nnc1-c1ccccc1	1.37
CN(C)CCSc1nnnn1-c1ccc(Br)cc1	0.435
CCCCOc1ccc(-c2cc3c(=O)[nH]ccn3n2)cc1	0.743
Cc1ccc2c(CC(=O)NCc3cccs3)coc2c1	0.547
CC(C)N(C)S(=O)(=O)NCCCc1nc2cc(Cl)ccc2[nH]1	16.7
CC(C)Cc1sc(N)nc1-c1ccc(P(=O)(O)O)o1	0.425
CC(C)(O)CCn1cc2cc(NC(=O)c3cccc(C(F)F)n3)c(OCC3COC3)cc2n1	11.7
Cc1ccc(-c2nc(CN3C(=O)C(=O)N(C4CCCC4)C3=O)cs2)cc1	0.789
Fc1ccc(CNc2nnc(-c3ccc4c(c3)OCO4)o2)cc1	0.313
CCOC(=O)Cc1c(C)[nH]c2c(-c3ccccc3)cnn2c1=O	18
CON(C)C(=O)Cc1c(C)[nH]c2ccccc12	0.627
COc1cc(OC)cc(N2CCC(NCC3(C)CCOCC3)CC2)c1	1.55
COc1ccc(-c2ccc(Cn3nc(C)cc3C)cn2)cc1	0.479
O=C(CCc1ccc2c(c1)OCO2)Nc1nc2c(s1)CCC2	0.236
Cc1cccc(NC(=O)c2cccc3ncccc23)c1	0.471
Cc1noc(C2CCN(CCc3ccccc3)CC2)n1	0.492
CC(=O)NCC1CCN(C(=O)c2cncn2-c2ccc(F)cc2)CC1	59.5
CC(=O)N1CCC(c2ccccn2)CC1	0.791
Cc1nn(C)c(C)c1-c1cc(C(C)(C)C)nc(N(C)C)n1	0.619
O=C(c1ccc(O)nc1)N1CCN(c2ncccn2)CC1	7
COc1cc2c(cc1OC)CC(=O)N(CCCN(C)C[C@H]1Cc3cc(OC)c(OC)cc31)CC2	73.8
Nc1ncnc2c1c(-c1cnc3[nH]ccc3c1)nn2C1CCCC1	6.9
Cn1cnnc1CNc1ccccc1C#N	4.56
Cc1ncccc1CNc1ccc(CC#N)cc1	0.534
CCc1nnc(NC(=O)c2ccc3cc(OC)ccc3n2)s1	0.248
CC[C@@H]1[C@H](F)C(=O)N[C@@H]1COc1nccc2cc(C(N)=O)c(OC)cc12	61.7
Cc1ccc(-c2ccc3c(ccc4sc5c(c43)NC[C@@H](C)NC5=O)n2)cn1	5.49
Cc1nnsc1CN(C)c1ccc2cc[nH]c2n1	0.593
O=c1c2cccnc2ncn1[C@H]1CCN(Cc2ccccc2)C1	0.776
CCc1nnc(N2CCCO2)c(C#N)c1CC	0.746
Cc1nnc(COc2cccc(-n3ccnc3)c2)n1C1CC1	23.1
COc1cc(CNC(=O)NC2CCCCC2)cc(OC)c1O	4.18
c1ccc2nc(N3CCCC4(CCNCC4)CC3)cnc2c1	33.3
